Data credit: a collection of fitness landscapes (doi:10.1016/j.celrep.2020.107928)

Kindly supply the reported one-hybrid fitness for binding parS DNA values for the records listed here.
B1: Caulobacter ParB omega fusion; a variant is named by its letters at X, in order, B8GW30 (parent)
chain: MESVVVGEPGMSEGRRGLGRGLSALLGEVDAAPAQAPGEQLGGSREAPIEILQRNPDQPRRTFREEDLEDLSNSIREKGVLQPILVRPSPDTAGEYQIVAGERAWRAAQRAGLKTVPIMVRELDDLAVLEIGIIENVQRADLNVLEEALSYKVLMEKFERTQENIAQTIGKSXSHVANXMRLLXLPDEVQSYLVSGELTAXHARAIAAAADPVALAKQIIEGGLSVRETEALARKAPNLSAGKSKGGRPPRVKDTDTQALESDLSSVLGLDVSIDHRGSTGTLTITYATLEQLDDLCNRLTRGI

Variants of: B1
TEST DESCRIPTION: one-hybrid fitness for binding parS DNA (scaled: cognate 1, non-cognate 0); higher = stronger binding
CONDITION DETAILS: with parS DNA site
Over roughly 81,000 sequences, “one-hybrid fitness for binding parS DNA” has its median near -0.17; the highest 2% begin near 0.51. For the sample, the highest values were picked, then their nearest neighbours and some sequences at random.
Please respond with just the number, no unit label.

Query: one-hybrid fitness for binding parS DNA; subject: RLTY
0.48

What value of measured one-hybrid fitness for binding parS DNA is listed for RNAT ?
0.686

Please give the measured one-hybrid fitness for binding parS DNA for this variant: RCCP
0.223

I have this variant here, RLCN , and I need its recorded one-hybrid fitness for binding parS DNA.
0.457

Can you look up the measured one-hybrid fitness for binding parS DNA of RCKT for me?
0.748

Quick one: one-hybrid fitness for binding parS DNA of RTCS ?
0.99

May I ask what one-hybrid fitness for binding parS DNA has been recorded for RMYH ?
0.234

Suppose we examine the variant RLTT ; what one-hybrid fitness for binding parS DNA value has been reported?
0.956

Name the recorded one-hybrid fitness for binding parS DNA for RNAM .
0.243

// query one-hybrid fitness for binding parS DNA value for entry RSVN
0.342

Requested read-out: one-hybrid fitness for binding parS DNA. Entry: RTTT
0.917

# lookup: one-hybrid fitness for binding parS DNA of REKT
0.369

Could you tell me which one-hybrid fitness for binding parS DNA is on file for RNFC ?
0.627

GET /values?readout=one-hybrid fitness for binding parS DNA&item= RSKT
0.796

Can you share its one-hybrid fitness for binding parS DNA? I mean this variant: RNKF
0.242

Item under review: RCAT . Reported one-hybrid fitness for binding parS DNA?
0.921

Query: one-hybrid fitness for binding parS DNA; subject: RTTF
0.253

So what's the measured one-hybrid fitness for binding parS DNA for this one? RMTT
0.945

Would you kindly share the measured one-hybrid fitness for binding parS DNA for RCCS ?
1.01

Return reported one-hybrid fitness for binding parS DNA; argument: RTCH
0.289

Item RNAN has what recorded one-hybrid fitness for binding parS DNA?
0.301

Look at this variant and give its reported one-hybrid fitness for binding parS DNA. RSVS
0.946
